Target: T1, MutS (Pseudomonas aeruginosa, UniProt Q9HY08 1-855)
T1 sequence: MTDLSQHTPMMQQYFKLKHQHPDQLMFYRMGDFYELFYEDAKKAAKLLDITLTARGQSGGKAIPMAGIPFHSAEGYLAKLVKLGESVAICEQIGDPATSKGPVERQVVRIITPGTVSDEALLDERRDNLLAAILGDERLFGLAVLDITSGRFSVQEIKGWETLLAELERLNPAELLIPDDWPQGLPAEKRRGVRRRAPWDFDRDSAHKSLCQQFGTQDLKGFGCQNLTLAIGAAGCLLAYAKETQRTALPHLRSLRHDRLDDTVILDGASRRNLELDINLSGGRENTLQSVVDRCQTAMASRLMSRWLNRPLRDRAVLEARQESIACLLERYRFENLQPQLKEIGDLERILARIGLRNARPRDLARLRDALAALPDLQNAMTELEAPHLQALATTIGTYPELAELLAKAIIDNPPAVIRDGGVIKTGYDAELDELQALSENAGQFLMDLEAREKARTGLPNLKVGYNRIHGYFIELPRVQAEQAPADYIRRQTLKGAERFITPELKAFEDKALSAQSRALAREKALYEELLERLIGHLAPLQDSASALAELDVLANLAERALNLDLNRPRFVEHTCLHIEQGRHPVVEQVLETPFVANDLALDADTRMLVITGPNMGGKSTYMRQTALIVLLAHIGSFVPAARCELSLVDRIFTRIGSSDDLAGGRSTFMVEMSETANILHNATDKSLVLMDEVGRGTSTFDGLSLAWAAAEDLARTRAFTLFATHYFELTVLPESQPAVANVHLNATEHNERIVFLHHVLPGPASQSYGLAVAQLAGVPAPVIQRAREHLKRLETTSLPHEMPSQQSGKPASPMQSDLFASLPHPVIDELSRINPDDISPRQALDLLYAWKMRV
Assay: SPR
pKd: −log10 of the molar value.

Binder: GT-dsDNA (GT 18 nt from 3' end) (dsDNA) DNA 1: ATGTGAATCAGTATGGTTGCTATCTGCTGAAGGAAAT DNA 2: ATTTCCTTCAGCAGATAGTAACCATACTGATTCACAT
pKd: 6.93
